# Test system: NCI/ADR-RES ovarian
# Test Details: NCI tumour cell line growth inhibition, 48 h
Below, each of the compounds is paired with its reported TGI value.

Cc1cc(N(CCCNc2ccnc3cc(Cl)ccc23)Cc2ccc3c(c2)OCO3)nc(N2CCOCC2)n1
23 µM

Which measured TGI value corresponds to `O=C(NNC(=O)c1ccccc1O)c1cccc(Br)c1` ?
> 100 µM

How about this compound: `NCC(=O)Nc1ccc(S(=O)(=O)O)c2cc(S(=O)(=O)O)cc(S(=O)(=O)O)c12`
> 100 µM

Input `Cc1ccc(Nc2oc(-c3ccccc3)nc2[P+](c2ccccc2)(c2ccccc2)c2ccccc2)cc1`
3.1 µM

----------
# Test system: NCI-H226 lung
# Test Details: NCI tumour cell line growth inhibition, 48 h; in the data active means GI50 below about 0.43 µM; inactive means the rest
Assign a class; possible classes are yes for active, no for inactive

CN1CC[C@@H](c2c(O)cc(O)c3c(=O)cc(-c4ccc(C(F)(F)F)cc4Cl)oc23)[C@@H]1CO
no

Dear all, I need the recorded test outcome for `O=C1c2cccc3cccc(c23)C(=O)N1CCCCCN1CCN(CCCCCOc2ccc(-c3nc4ccc(N5CCOCC5)cc4[nH]3)cc2)CC1` , thank you.
no

Queued: `CC1(C)N=C(N)N=C(N)N1c1ccc(CCCCc2ccc(Cl)c(S(=O)(=O)F)c2)c(Cl)c1`
no

And then `CCc1ccc(/C=C/c2ccc(O)c3ncccc23)[n+](C)c1` , what is it?
no

// repeat for `O=[N+]([O-])c1cccc2ccc(N/N=C/c3ccccc3O)nc12` and report
no

What do we get for `NCCCn1c2c(c3ccc([N+](=O)[O-])cc3c1=O)C(=O)c1ccccc1-2` ?
yes

----------
# System: PC-3 prostate
# Test Details: NCI tumour cell line growth inhibition, 48 h
Readings of log10 of TGI for the listed compounds
Scale: decimal log of TGI, TGI in µM.

COc1ccc(C[C@H]2COC(=O)[C@@H]2Cc2cccc(Br)c2)cc1OC
1.73
COc1cccc2nc3c(C(=O)NCCN(C)C)cccc3cc12
1.01
C=C1CC/C=C(\C)CCC[C@H](C)[C@@H](O)[C@@H]2OC(=O)C(=C)[C@@H]2C[C@H]1O
1.36

Reported log10 of TGI for COc1ccc(C(O)(CCC(C)C)C(CN2CCOCC2)c2ccc(Cl)cc2)cc1 (stereo not drawn) : what is it?
1.32

Same thing, different compound: `CCOC(=O)c1c2c(n(Cc3ccccc3)c1C)C(=O)C(=O)c1ccccc1-2`
0.71

Continue with CC1OC(OC2C(OC(=O)[C@]34CCC(C)(C)C[C@H]3C3=CC[C@@H]5[C@@]6(C)CC[C@H](OC7OC(CO)C(O)C(O)C7OC7OC(CO)C(O)C(O)C7O)C(C)(C)[C@@H]6CC[C@@]5(C)[C@]3(C)CC4)OCC(O)C2O)C(O)C(OC2OCC(O)C(O)C2O)C1OC1OCC(O)C(OC2OCC(O)C(O)C2O)C1O (stereo partly drawn)
1.41

Try COC12C(COC(N)=O)C3=C(C(=O)C(C)=C(N)C3=O)N1CC1C2N1C (stereo not drawn) next.
1.79

Request: `O=C1c2cccc3cccc(c23)C(=O)N1CCCCCN1CCN(CCCCCOc2ccc(-c3nc4ccc(N5CCOCC5)cc4[nH]3)cc2)CC1`
1.25

Now consider CC(C)C(C/C=C1\CC(CO)(COC(=O)C(C)(C)C)OC1=O)C(C)C (stereo not drawn) .
1.32

Also, `Cc1nc2cc(Nc3nc(Nc4ccc(F)cc4)nc(-c4cccs4)n3)ccc2n1Cc1ccccc1` please.
1.72
